Provide the recorded PBM binding z-score for the entries that follow.
system: RARb:RXRa (NR concentration 270 nM, RXRa partner concentration 90 nM); assay: PBM binding z-score (relative to random genomic background probes); higher = stronger binding; sequences stand for … in GC…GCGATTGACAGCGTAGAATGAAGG
Numbers only.

Example entries begin here.
* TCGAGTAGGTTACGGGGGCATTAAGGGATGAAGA | 2.59
* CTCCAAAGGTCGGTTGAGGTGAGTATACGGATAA | 3.18
* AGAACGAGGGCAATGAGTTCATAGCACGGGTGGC | 2.79
* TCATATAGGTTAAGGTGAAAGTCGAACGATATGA | 2.49
* CGAACTAGGTCAAAGGACAATGAAAGGCGACGTA | 3.85

For each of the sequences below, state PBM binding z-score.
1. CCGAGTAGGTTACGAGGGGGCGTTCAGTGCGAAT
2. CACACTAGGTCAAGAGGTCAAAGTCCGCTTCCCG
3. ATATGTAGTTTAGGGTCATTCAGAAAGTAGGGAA
4. TCGAGTAGGTTACGGGGGCATTCACGGATGAAGA
5. CCAGACAGGTGAAAGGTAACTCCGTCTGGTACGC
6. GCTTACGGGTCAAAGGTTATAACATGAATAGAAT
7. GCTGCTAGGTCATGTTGGTCAGCTAACGGGTACG

Result block:
1: 1.72; 2: 5.28; 3: 3.42; 4: 2.51; 5: 1.23; 6: 4.53; 7: 3.69
